molecular target: ~100 representative kinases (Homo sapiens, UniProt P49137); construct: Recombinant protein kinase domains with a concentration of 2 μM; assay: DSF 100 kinase selectivity screen; format: binding; details: protein MAPKAPK2; average of three replicates;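 also: compound tested at 20 µM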
Sequence (P49137 whole entry, the tested form may be a part): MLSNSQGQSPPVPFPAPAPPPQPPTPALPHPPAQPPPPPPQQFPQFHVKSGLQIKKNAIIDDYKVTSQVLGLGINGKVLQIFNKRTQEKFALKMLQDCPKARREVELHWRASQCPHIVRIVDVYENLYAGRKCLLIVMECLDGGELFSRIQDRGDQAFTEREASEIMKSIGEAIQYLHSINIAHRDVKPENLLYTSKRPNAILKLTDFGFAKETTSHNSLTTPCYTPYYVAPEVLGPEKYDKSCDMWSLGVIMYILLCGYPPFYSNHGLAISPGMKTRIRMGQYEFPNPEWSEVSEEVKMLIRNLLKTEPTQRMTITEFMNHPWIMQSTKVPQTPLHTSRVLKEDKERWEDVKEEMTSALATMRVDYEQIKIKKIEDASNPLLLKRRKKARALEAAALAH
Attribute: dTm
measurementName: dTm (K)

1) COc1cc2c(Oc3ccc(NC(=O)C4(C(=O)Nc5ccc(F)cc5)CC4)cc3F)ccnc2cc1OCCCN1CCOCC1 [Foretinib, reference compound] : 0.33
2) Cc1ccc(C(=O)Nc2ccc(CN3CCN(C)CC3)c(C(F)(F)F)c2)cc1C#Cc1c[nH]c2ncnc(N3CCOCC3)c12 [Compound 1] : -0.41
3) COc1cc(NC(=O)C2(C(=O)Nc3cccc(-c4c[nH]c5ncnc(N6CCOCC6)c45)c3)CC2)ccc1F [Compound 21] : -0.29
4) CC(=O)N1CCN(c2nc(Cl)nc3[nH]cc(-c4cccc(NC(=O)Nc5cc(C(C)(C)C)nn5-c5ccc(C)cc5)c4)c23)CC1 [Compound 31] : -0.40
5) O=C(Nc1cccc(-c2c[nH]c3ncnc(N4CCOCC4)c23)c1)C1(C(=O)Nc2cccc3c2CCC3)CC1 [Compound 11] : -0.26

====

Molecular target: ~100 representative kinases (Homo sapiens, UniProt Q8TF76)
Construct: Recombinant protein kinase domains with a concentration of 2 μM
Sequence (Q8TF76 1-798): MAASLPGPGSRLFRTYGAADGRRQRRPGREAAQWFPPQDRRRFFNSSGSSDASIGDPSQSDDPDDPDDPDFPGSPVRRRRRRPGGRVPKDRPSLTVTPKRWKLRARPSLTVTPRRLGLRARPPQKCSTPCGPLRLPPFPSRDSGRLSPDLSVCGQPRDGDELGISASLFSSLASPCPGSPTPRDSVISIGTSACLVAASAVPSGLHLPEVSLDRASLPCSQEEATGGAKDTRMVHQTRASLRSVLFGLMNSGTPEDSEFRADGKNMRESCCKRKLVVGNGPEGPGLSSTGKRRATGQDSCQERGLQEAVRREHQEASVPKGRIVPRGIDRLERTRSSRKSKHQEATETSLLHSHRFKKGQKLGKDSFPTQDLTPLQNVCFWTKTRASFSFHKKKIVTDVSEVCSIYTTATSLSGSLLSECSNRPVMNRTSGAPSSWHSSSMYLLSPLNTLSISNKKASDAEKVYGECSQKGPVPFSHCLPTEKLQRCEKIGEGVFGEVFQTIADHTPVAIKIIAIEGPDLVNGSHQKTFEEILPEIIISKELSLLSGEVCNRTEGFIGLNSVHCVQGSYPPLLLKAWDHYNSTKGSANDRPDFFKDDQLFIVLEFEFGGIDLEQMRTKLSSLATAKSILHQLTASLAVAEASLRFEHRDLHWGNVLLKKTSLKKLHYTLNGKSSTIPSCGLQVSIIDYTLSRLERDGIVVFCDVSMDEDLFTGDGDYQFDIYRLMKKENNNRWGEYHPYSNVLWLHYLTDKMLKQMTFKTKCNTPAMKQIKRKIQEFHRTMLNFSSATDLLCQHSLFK
Experiment: DSF 100 kinase selectivity screen;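 also: compound tested at 20 µM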
Type: binding
Details: protein GSG2; average of three replicates
measurementName: dTm (K)

1. C[C@@H]1CN(c2cc(-c3n[nH]c4ccc(OC5(C)CC5)cc34)ncn2)C[C@H](C)O1 : 0.08
2. COc1ccc(NC(=O)C2(C(=O)Nc3cccc(-c4c[nH]c5ncnc(N6CCOCC6)c45)c3)CC2)cc1 : -0.39
3. CC(=O)N1CCN(c2nc(Cl)nc3[nH]cc(-c4cccc(NC(=O)Nc5cc(C(C)(C)C)nn5-c5ccc(C)cc5)c4)c23)CC1 : -3.39
4. CCNc1nc(Nc2cc(F)c(C(=O)N3CCOCC3)cc2OC)ncc1C(F)(F)F : -0.09

====

target: ~100 representative kinases (Homo sapiens, UniProt Q8IU85); construct: Recombinant protein kinase domains with a concentration of 2 μM; test: DSF 100 kinase selectivity screen; assay type: binding; details: Protein CAMK1D; average of three replicates;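 also: compound tested at 20 µM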
Sequence (Q8IU85 whole entry, the tested form may be a part): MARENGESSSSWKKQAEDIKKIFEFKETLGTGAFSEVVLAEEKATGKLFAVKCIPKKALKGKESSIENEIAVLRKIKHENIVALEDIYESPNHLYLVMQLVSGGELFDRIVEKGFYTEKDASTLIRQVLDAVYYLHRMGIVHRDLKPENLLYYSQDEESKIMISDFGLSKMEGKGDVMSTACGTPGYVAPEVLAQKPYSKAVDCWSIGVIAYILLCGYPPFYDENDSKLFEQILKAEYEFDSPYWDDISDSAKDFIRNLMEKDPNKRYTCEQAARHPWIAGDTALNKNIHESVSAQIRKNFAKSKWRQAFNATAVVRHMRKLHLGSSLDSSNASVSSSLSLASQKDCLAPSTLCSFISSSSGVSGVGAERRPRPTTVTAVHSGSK
measurementName: dTm (K)

1) CC(C)(C)c1cc(NC(=O)Nc2cccc(-c3c[nH]c4ncnc(N5CCOCC5)c34)c2)n(-c2ccc3ncccc3c2)n1 [Compound 28] : 2.13
2) Cc1ccc(C(=O)Nc2ccc(CN3CCN(C)CC3)c(C(F)(F)F)c2)cc1C#Cc1c[nH]c2ncnc(N3CCOCC3)c12 [Compound 1] : 0.56
3) O=C(Nc1cccc(-c2c[nH]c3ncnc(N4CCOCC4)c23)c1)C1(C(=O)Nc2cccc3c2CCC3)CC1 [Compound 11] : 1.59
4) COc1cc(C(=O)N2CCOCC2)c(F)cc1Nc1nc(N(C)C)c2c(Cl)c[nH]c2n1 [Compound 36] : 1.95

====

biological target: ~100 representative kinases (Homo sapiens); construct: Recombinant protein kinase domains with a concentration of 2 μM; experiment: DSF 100 kinase selectivity screen; format: binding; settings: protein FESA; average of three replicates;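 also: compound tested at 20 µM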
# dTm per entry
measurementName: dTm (K)

1) O=C(Nc1cccc(-c2c[nH]c3ncnc(N4CCOCC4)c23)c1)C1(C(=O)Nc2ccc(F)c(F)c2)CC1 : 5.87
2) Cc1cc(NC(=O)C2(C(=O)Nc3cccc(-c4c[nH]c5ncnc(N6CCOCC6)c45)c3)CC2)ccc1F : 7.60
3) O=C(Nc1cc(F)cc(Br)c1)C1(C(=O)Nc2cccc(-c3c[nH]c4ncnc(N5CCOCC5)c34)c2)CC1 : 3.58
4) Cc1ccc(C(=O)Nc2ccc(CN3CCN(C)CC3)c(C(F)(F)F)c2)cc1C#Cc1c[nH]c2ncnc(N3CCOCC3)c12 : 3.82

====

target: ~100 representative kinases (Homo sapiens, UniProt P33981); construct: Recombinant protein kinase domains with a concentration of 2 μM; assay: DSF 100 kinase selectivity screen; type: binding; settings: Protein TTK; DSF; average of three replicates;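 also: compound tested at 20 µM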
Sequence (P33981 whole entry, the tested form may be a part): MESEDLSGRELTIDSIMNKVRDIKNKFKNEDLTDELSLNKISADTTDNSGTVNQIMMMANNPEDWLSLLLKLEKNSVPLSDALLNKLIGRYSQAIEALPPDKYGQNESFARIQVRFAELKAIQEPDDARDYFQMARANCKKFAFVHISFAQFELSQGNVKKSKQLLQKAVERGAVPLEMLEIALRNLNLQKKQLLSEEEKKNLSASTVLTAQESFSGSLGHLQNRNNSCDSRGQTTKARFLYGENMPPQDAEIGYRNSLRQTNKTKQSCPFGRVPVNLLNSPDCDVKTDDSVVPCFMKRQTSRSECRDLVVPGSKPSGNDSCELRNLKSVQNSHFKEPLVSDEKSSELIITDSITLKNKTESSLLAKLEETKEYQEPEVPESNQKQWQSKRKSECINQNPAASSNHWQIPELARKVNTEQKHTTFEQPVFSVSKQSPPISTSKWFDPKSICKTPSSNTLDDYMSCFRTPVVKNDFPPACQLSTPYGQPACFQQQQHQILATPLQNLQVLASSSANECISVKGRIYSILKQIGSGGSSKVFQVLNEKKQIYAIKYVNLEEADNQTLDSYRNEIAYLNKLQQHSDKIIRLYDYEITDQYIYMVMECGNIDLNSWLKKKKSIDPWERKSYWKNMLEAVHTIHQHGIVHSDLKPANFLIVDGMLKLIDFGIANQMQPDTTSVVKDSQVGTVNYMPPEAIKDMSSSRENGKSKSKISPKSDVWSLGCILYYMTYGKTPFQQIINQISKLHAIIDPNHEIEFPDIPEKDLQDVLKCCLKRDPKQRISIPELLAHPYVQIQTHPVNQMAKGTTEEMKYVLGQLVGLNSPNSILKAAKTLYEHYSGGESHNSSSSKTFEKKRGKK
Criterion: dTm meeting or surpassing 5 K. Met: Satisfied. Not met: Not satisfied.

1. O=C(Nc1cccc(-c2c[nH]c3ncnc(N4CCOCC4)c23)c1)C1(C(=O)Nc2cccc3c2CCC3)CC1 [Compound 11] : Satisfied
2. O=C(Nc1cccc(-c2c[nH]c3ncnc(N4CCOCC4)c23)c1)C1(C(=O)Nc2ccc(F)c(F)c2)CC1 [Compound 17] : Satisfied
3. COc1cc2c(Oc3ccc(NC(=O)C4(C(=O)Nc5ccc(F)cc5)CC4)cc3F)ccnc2cc1OCCCN1CCOCC1 [Foretinib, reference compound] : Not satisfied
4. Cc1ccc(NC(=O)C2(C(=O)Nc3cccc(-c4c[nH]c5ncnc(N6CCOCC6)c45)c3)CC2)cc1 [Compound 14] : Not satisfied
5. Cn1cc(-c2c[nH]c3ncnc(N4CCOCC4)c23)cc1C#N [PFE-360] : Not satisfied
6. Cc1cc(NC(=O)C2(C(=O)Nc3cccc(-c4c[nH]c5ncnc(N6CCOCC6)c45)c3)CC2)ccc1F [Compound 20] : Satisfied
7. Cc1ccc(C(=O)Nc2ccc(CN3CCN(C)CC3)c(C(F)(F)F)c2)cc1C#Cc1cnc2[nH]ncc2c1 [GZD-824, reference compound] : Not satisfied

====

biological target: ~100 representative kinases (Homo sapiens, UniProt Q9NSY1); construct: Recombinant protein kinase domains with a concentration of 2 μM; assay: DSF 100 kinase selectivity screen; assay type: binding; conditions: Protein BMP2K; average of three replicates;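 also: compound tested at 20 µM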
Sequence (Q9NSY1 whole entry, the tested form may be a part): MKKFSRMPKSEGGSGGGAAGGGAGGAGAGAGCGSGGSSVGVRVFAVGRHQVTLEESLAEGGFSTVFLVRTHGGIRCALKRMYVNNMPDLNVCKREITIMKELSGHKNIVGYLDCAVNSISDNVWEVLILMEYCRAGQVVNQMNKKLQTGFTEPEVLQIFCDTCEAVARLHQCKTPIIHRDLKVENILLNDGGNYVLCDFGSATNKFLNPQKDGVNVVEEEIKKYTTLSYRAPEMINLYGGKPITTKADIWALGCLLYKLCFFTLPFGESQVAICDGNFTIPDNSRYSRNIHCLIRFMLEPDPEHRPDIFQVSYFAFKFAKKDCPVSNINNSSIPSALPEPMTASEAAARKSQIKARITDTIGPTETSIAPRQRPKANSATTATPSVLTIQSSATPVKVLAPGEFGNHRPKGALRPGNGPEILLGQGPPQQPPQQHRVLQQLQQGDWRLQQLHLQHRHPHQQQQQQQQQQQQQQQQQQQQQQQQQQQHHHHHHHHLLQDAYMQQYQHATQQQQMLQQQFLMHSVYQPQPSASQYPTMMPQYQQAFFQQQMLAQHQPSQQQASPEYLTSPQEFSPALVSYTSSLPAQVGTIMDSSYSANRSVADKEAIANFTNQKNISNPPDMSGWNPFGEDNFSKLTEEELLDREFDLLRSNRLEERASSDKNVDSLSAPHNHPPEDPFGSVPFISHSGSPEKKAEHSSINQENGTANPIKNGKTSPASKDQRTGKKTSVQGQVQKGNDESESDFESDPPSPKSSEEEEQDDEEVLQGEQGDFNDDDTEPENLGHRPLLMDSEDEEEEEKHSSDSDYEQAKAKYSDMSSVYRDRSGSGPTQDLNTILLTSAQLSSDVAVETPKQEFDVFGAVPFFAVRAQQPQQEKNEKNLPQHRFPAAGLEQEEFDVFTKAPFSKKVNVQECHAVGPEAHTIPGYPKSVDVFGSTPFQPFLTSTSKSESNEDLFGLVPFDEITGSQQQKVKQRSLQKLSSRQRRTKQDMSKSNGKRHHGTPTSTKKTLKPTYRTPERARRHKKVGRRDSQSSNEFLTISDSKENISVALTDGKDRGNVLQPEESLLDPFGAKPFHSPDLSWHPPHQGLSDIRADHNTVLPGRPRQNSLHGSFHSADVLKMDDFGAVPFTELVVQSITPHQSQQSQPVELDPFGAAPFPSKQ
measurementName: dTm (K)

1) Cc1cc(NC(=O)C2(C(=O)Nc3ccc(F)cc3)CC2)cc(-c2c[nH]c3ncnc(N4CCOCC4)c23)c1 : 5.63
2) Cc1ccc(-n2nc(C(C)(C)C)cc2NC(=O)Nc2cccc(-c3c[nH]c4nc(Cl)nc(N5CCOCC5)c34)c2)cc1 : 1.64
3) CC(C)(C)c1cc(NC(=O)Nc2cccc(-c3c[nH]c4ncnc(N5CCOCC5)c34)c2)n(-c2ccc3ncccc3c2)n1 : 6.24
4) COc1ccc(NC(=O)C2(C(=O)Nc3cccc(-c4c[nH]c5ncnc(N6CCOCC6)c45)c3)CC2)cc1 : 4.89
5) O=C(Nc1ccccc1)C1(C(=O)Nc2cccc(-c3c[nH]c4ncnc(N5CCOCC5)c34)c2)CC1 : 7.72
6) O=C(Nc1cc(F)cc(Br)c1)C1(C(=O)Nc2cccc(-c3c[nH]c4ncnc(N5CCOCC5)c34)c2)CC1 : 5.45
7) COc1cc(NC(=O)C2(C(=O)Nc3cccc(-c4c[nH]c5ncnc(N6CCOCC6)c45)c3)CC2)ccc1F : 6.71
8) O=C(Nc1cccc(-c2c[nH]c3ncnc(N4CCOCC4)c23)c1)C1(C(=O)Nc2ccc(F)c(Br)c2)CC1 : 8.80
9) Cc1ccc(NC(=O)C2(C(=O)Nc3cccc(-c4c[nH]c5ncnc(N6CCOCC6)c45)c3)CC2)cc1 : 5.95
10) O=C(Nc1cccc(-c2c[nH]c3ncnc(N4CCOCC4)c23)c1)C1(C(=O)Nc2cccc3c2CCC3)CC1 : 8.56
11) O=C(Nc1ccc(F)cc1)C1(C(=O)Nc2cccc(-c3c[nH]c4ncnc(N5CCOCC5)c34)c2)CC1 : 6.37
12) O=C(Nc1cccc(-c2c[nH]c3ncnc(N4CCOCC4)c23)c1)C1(C(=O)Nc2ccc(F)c(Br)c2F)CC1 : 9.57
13) O=C(Nc1ccc(Cl)cc1)C1(C(=O)Nc2cccc(-c3c[nH]c4ncnc(N5CCOCC5)c34)c2)CC1 : 6.46
14) Cc1ccc(-n2nc(C(C)(C)C)cc2NC(=O)Nc2cccc(-c3c[nH]c4ncnc(N5CCOCC5)c34)c2)cc1 : 7.54
